The measurements presented in this section are drawn from the supplement of paper PMC5844555.

- Test system: EZH2
- PROCEDURE DETAILS: 3' UTR reporter interaction score (median-centred robust z-score of log2 firefly/Renilla activity); higher = less repression of the 3' UTR reporter
- EXPERIMENTAL PARAMETERS: HEK293T; 48 h

BIOSEQUENCE	3' UTR reporter interaction score
AAAGUGCCUCCUUUUAGAGUGU	-0.239
UUAAUGCUAAUCGUGAUAGGGG	1.21
AAAAUGGUUCCCUUUAGAGUGUU	0.888
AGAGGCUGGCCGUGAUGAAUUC	0.351
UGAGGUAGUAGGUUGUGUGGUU	-3.63
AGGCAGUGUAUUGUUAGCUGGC	-0.179
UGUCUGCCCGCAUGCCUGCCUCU	1.24
CUCUAGAGGGAAGCACUUUCUCU	-0.139
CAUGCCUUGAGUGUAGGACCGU	0.42
UUUAGGAUAAGCUUGACUUUUG	0.299
UAUUGCACUUGUCCCGGCCUG	-0.214
GAUUGCUCUGCGUGCGGAAUCGAC	0.471
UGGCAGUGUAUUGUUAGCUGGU	-0.805
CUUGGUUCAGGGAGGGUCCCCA	0.379
AUUCUAAUUUCUCCACGUCUUUG	-4.24
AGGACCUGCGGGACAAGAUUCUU	-0.425
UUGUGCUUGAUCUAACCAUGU	0.222
UGGUGGGCCGCAGAACAUGUGC	-0.375
AACUGGCCUACAAAGUCCCAG	0.239
AAAGUGCUUCCUUUUAGAGGC	-0.74

====

- System: MYT1L
- PROCEDURE DETAILS: 3' UTR reporter interaction score (median-centred robust z-score of log2 firefly/Renilla activity); higher = less repression of the 3' UTR reporter
- EXPERIMENTAL PARAMETERS: HEK293T; 48 h

BIOSEQUENCE	TARGET OR TEST SYSTEM	3' UTR reporter interaction score
AAUCCUUGGAACCUAGGUGUGAGU	MYT1L	-4.11
CACGCUCAUGCACACACCCAC	MYT1L	0.0877
UAUGGCUUUUUAUUCCUAUGUGA	MYT1L	0.172
GGGCGCCUGUGAUCCCAAC	MYT1L	0.181
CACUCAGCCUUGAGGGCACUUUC	MYT1L	-1.55
UGGGCGUAUCUGUAUGCUA	MYT1L	0.105
UCACUCCUCUCCUCCCGUCUUCU	MYT1L	1.44
UGGAGAGAAAGGCAGUUC	MYT1L	0.463
GUGCAUUGUAGUUGCAUUG	MYT1L	-0.399

====

- System: BRCA2
- PROCEDURE DETAILS: 3' UTR reporter interaction score (median-centred robust z-score of log2 firefly/Renilla activity); higher = less repression of the 3' UTR reporter
- EXPERIMENTAL PARAMETERS: HEK293T; 48 h
3' UTR reporter interaction score values for the sequences below.

BIOSEQUENCE	TARGET OR TEST SYSTEM	3' UTR reporter interaction score
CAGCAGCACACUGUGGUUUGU	BRCA2	0.267
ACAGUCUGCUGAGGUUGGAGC	BRCA2	0.137
ACAAAGUGCUUCCCUUUAGAGUGU	BRCA2	-0.733
GGUAGAUUCUCCUUCUAUGAG	BRCA2	-0.394
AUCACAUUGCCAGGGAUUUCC	BRCA2	-1.67
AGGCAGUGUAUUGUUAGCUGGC	BRCA2	1.59
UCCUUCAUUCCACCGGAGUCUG	BRCA2	-0.488
UGGAAUGUAAGGAAGUGUGUGG	BRCA2	-0.366
CAAAGUGCCUCCCUUUAGAGUGU	BRCA2	0.407
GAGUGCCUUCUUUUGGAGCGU	BRCA2	-0.0488
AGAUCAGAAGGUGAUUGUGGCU	BRCA2	0.117
GAACGCCUGUUCUUGCCAGGUGG	BRCA2	1.57
AAUAAUACAUGGUUGAUCUUU	BRCA2	-0.146
